Give measured Kd for each item. Keep answers brief.
- measured target: T1, DR3-8i (human)
- T1 construct: also called purified monomeric DR3-8i antigen protein
- T1 chain: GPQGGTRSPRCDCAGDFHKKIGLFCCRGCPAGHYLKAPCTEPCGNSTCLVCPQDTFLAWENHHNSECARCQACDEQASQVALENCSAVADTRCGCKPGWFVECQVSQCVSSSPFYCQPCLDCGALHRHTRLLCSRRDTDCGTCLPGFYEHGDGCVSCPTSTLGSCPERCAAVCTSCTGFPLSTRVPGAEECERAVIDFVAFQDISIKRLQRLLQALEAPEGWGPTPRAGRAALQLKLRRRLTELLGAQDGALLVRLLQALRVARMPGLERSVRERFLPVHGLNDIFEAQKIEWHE
- experiment: BLI, IgG captured on protein A, DR3-8i in solution; single experiment, column not clear
Answer with the number, then the unit.

Exercise: Suppose we examine the binder VHg2/VLg4 (antibody, human IgG1, V domains shown, human IgG1) VH: QMQLVQSGGGLVKPGGSLRLSCAASGFTFSSYAMSWIRQAPGKGLEWVSTISDGDSYSYFPDSVKDRFTISRDNAKNSLYLQMNSLRAEDTAVYYCTRDRIYGSVQYYAMDYWGRGTLVTVSS VL: DVVMTQSPDSLAVSLGERATISCRASESVEFSGTSLMQWYQQKPRQPLKLLIYAASNVESGVPDRFSGSGSGTDFTLTISSLQAEDVAVYYCQQSRKLPYTFGQGTRLEIK ; what Kd value has been reported?
Key: 24.8 pM

Exercise: Now the binder VHg5/VLg12 (antibody, human IgG1, V domains shown, human IgG1) VH: QVQLQQSGGGLVQAGGSLRLSCAASGFTFTSYAMSWVRQAPGKGLEWVATISDGDSYSYFPDSVKDRFIISRDNAKNSLFLQMNSLRAEDTAVYYCARDRIYGSVQYYAMDYWGRGTLVTVSS VL: EIVLTQSPATLSLSPGERATLSCRASESVEFSGTSLMQWYQQKPGQAPRLLIYAASNVESGIPARFSGSGSGTDFTLTISSLEPEDFAVYYCQQSRKLPYTFGQGTKLEIK
Key: 126 pM

Exercise: Now the binder VHg6/VLg1 (antibody, human IgG1, V domains shown, human IgG1) VH: QVQLQQSGGGLVQPGGSLRLSCAASGFTFSSYAMSWVRQAPGKGLEWVATISDGDSYSYFPDSVKDRFTISRDNARNSLYLQMNSLRAEDTAVYYCARDRIYGSVQYYAMDYWGRGTLVTVSS VL: DVVMTQSPDSLAVSLGERATINCRASESVEFSGTSLMQWYQQKPGQPPKLLIYAASNVESGVPDRFSGSGSGTDFTLTISSLQAEDVVVYYCQQSRKLPYTFGGGTKVEIK
Key: 76 pM

Exercise: Now the binder VHg5/VLg13 (antibody, human IgG1, V domains shown, human IgG1) VH: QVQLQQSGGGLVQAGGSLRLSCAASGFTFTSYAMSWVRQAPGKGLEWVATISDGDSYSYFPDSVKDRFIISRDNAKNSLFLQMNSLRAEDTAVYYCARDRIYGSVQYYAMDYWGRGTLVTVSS VL: DIQMTQSPSSLSASVGDRVTITCRASESVEFSGTSLMQWYQQKPGKAPKLLIYAASNVESGVPSRFSGSGSGTDFTFTISSLQPEDIATYYCQQSRKLPYTFGQGTKLEIK
Key: 124 pM

Exercise: Now the binder VHg2/VLg13 (antibody, human IgG1, V domains shown, human IgG1) VH: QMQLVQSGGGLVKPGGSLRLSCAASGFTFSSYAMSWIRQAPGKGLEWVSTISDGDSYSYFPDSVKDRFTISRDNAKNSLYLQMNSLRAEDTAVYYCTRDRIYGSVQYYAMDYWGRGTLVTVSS VL: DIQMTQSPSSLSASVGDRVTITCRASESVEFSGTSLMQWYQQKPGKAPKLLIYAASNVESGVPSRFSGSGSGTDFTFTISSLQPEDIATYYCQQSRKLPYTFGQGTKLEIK
Key: 157 pM
